Quick reference: IC50 of the listed items.
Target: Trypanothione reductase (Leishmania infantum, UniProt A4HSF7)
Sequence (A4HSF7 whole entry): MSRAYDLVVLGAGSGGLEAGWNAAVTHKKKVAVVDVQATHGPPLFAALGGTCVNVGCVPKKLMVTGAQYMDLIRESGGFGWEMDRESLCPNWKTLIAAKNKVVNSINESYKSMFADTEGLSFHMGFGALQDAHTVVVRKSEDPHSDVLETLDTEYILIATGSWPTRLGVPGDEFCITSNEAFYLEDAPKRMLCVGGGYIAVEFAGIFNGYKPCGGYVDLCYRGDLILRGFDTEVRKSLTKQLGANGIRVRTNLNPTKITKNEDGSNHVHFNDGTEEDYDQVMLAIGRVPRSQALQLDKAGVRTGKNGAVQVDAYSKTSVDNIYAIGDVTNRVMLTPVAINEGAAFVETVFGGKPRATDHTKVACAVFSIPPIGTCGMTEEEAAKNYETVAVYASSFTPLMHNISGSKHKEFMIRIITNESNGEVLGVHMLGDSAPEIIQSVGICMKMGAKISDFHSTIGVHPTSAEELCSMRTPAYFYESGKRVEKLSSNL
Assay: Inhibition of recombinant His/FLAG-tagged Leishmania infantum TryR dimerization assessed as dimer disruption after 1 hr by ELISA

Examples with their reported IC50 follow.
CC[C@H](C)[C@H](NC(=O)[C@@H]1CCCCNC(=O)CC[C@H](NC(=O)[C@@H](NC(=O)[C@H](CCCCN)NC(=O)[C@@H]2CCCN2C(C)=O)[C@@H](C)CC)C(=O)N[C@@H](CCC(N)=O)C(=O)NC(CO)C(=O)N[C@@H](C(C)C)C(=O)N1)C(N)=O (single isomer, unassigned) ... > 75 µM
CCCCC(NC(=O)[C@H](CCCCN)NC(=O)C(CCCC)NC(=O)[C@H](CO)NC(=O)[C@@H](NC(=O)CNC(=O)[C@@H](NC(=O)[C@H](CO)NC(=O)[C@H](CCC(N)=O)NC(=O)[C@@H](NC(=O)[C@@H](NC(=O)[C@H](CCCCN)NC(=O)[C@@H]1CCCN1C(C)=O)[C@@H](C)CC)[C@@H](C)CC)C(C)C)[C@@H](C)CC)C(N)=O (stereo partly drawn) ... 13.5 µM

Switching to the query record.
### Prompt I have this compound here, CCCCC(NC(=O)[C@H](CCCCN)NC(=O)C(CCCC)NC(=O)[C@H](CO)NC(=O)[C@@H](NC(=O)[C@@H]1CCCCNC(=O)CC[C@H](NC(=O)[C@@H](NC(=O)[C@H](CCCCN)NC(=O)[C@@H]2CCCN2C(C)=O)[C@@H](C)CC)C(=O)N[C@@H](CCC(N)=O)C(=O)NC(CO)C(=O)N[C@@H](C(C)C)C(=O)N1)[C@@H](C)CC)C(N)=O (single isomer, unassigned) , and I need its recorded IC50.
### Response 14.4 µM

Data provenance is ChEMBL document CHEMBL4052619.
